Listing of entries alongside the reported viability at 20 µM.
Tested on: MCF7
Experiment: Cytotoxicity against human MCF7 cells assessed as cell viability at 20 uM after 24 hrs by MTT assay
Type: functional
Conditions: MCF7, 24 h, read-out: Activity
Bridge positions count the residues as written; N and C are the ends. Square brackets hold non-standard residues; d marks the D form. Side chains are listed from the residue outwards. Peptide text beside a SMILES is read from it. ξ: configuration not given here. ξtBuAla = CC(C)(C)CC(N)C(=O)O; ξD = NC(CC(=O)O)C(=O)O; ξDap = NCC(N)C(=O)O; βAla = NCCC(=O)O
readout: viability at 20 µM

1) CC[C@H](C)[C@@H]1NC(=O)C(NC(=O)[C@H](CCCNC(=N)N)NC(=O)CCNC(=O)[C@H](Cc2c[nH]c3ccccc23)NC(C)=O)CNC(=O)C(CC(=O)N[C@@H](CCC(N)=O)C(=O)NC(CC(C)(C)C)C(=O)N[C@@H](CCCNC(=N)N)C(=O)NC(CC(C)(C)C)C(N)=O)NC(=O)C(CC(C)(C)C)NC1=O (stereo partly drawn) (Ac-W[βAla]R[ξDap]I[ξtBuAla][ξD]([Gln-ξtBuAla-Arg-ξtBuAla-NH2]); lactam 4-C) | 79.2%
2) CC[C@H](C)[C@@H]1NC(=O)C[C@H](NC(=O)[C@H](CCCNC(=N)N)NC(=O)CCNC(=O)[C@H](Cc2c[nH]c3ccccc23)NC(C)=O)C(=O)NCC(C(=O)N[C@@H](CCCNC(=N)N)C(=O)N[C@@H](CC(C)C)C(=O)N[C@@H](CC(C)C)C(=O)N[C@@H](CCC(N)=O)C(N)=O)NC(=O)C(CC(C)(C)C)NC1=O (stereo partly specified) | 53.9%
3) CC[C@H](C)[C@@H]1NC(=O)C[C@H](NC(=O)[C@H](CCCNC(=N)N)NC(=O)CCNC(=O)[C@H](Cc2c[nH]c3ccccc23)NC(C)=O)C(=O)NCC(C(=O)N[C@@H](CCCNC(=N)N)C(=O)N[C@@H](CC(C)C)C(=O)N[C@@H](CC(C)C)C(=O)N[C@@H](CCC(N)=O)C(N)=O)NC(=O)[C@H](CC(C)C)NC1=O (stereo partly specified) | 64.5%
4) CC[C@H](C)[C@@H]1NC(=O)C[C@H](NC(=O)[C@H](CCCNC(=N)N)NC(=O)CCNC(=O)[C@H](Cc2c[nH]c3ccccc23)NC(C)=O)C(=O)NCC(C(=O)N[C@@H](CCCNC(=N)N)C(=O)NC(CC(C)(C)C)C(=O)N[C@@H](CC(C)C)C(=O)N[C@@H](CCC(N)=O)C(N)=O)NC(=O)[C@H](CC(C)C)NC1=O (stereo partly specified) | 53.9%
5) CC[C@H](C)[C@@H]1NC(=O)C[C@H](NC(=O)[C@H](CCCNC(=N)N)NC(=O)CCNC(=O)[C@H](Cc2c[nH]c3ccccc23)NC(C)=O)C(=O)NCC(C(=O)N[C@@H](CCCNC(=N)N)C(=O)NC(CC(C)(C)C)C(=O)NC(CC(C)(C)C)C(=O)N[C@@H](CCC(N)=O)C(N)=O)NC(=O)C(CC(C)(C)C)NC1=O (stereo partly specified) | 14%
6) CC[C@H](C)[C@@H]1NC(=O)C[C@H](NC(=O)[C@H](CCCNC(=N)N)NC(=O)CCNC(=O)[C@H](Cc2c[nH]c3ccccc23)NC(C)=O)C(=O)NCC(C(=O)N[C@@H](CCCNC(=N)N)C(=O)N[C@@H](CC(C)C)C(=O)NC(CC(C)(C)C)C(=O)N[C@@H](CCC(N)=O)C(N)=O)NC(=O)[C@H](CC(C)C)NC1=O (stereo partly specified) | 43.1%

The values you see were collected from ChEMBL document CHEMBL4017549.
